# pKi measurements, system: Estrogen receptor (Homo sapiens)
# Sequence (P03372 whole entry): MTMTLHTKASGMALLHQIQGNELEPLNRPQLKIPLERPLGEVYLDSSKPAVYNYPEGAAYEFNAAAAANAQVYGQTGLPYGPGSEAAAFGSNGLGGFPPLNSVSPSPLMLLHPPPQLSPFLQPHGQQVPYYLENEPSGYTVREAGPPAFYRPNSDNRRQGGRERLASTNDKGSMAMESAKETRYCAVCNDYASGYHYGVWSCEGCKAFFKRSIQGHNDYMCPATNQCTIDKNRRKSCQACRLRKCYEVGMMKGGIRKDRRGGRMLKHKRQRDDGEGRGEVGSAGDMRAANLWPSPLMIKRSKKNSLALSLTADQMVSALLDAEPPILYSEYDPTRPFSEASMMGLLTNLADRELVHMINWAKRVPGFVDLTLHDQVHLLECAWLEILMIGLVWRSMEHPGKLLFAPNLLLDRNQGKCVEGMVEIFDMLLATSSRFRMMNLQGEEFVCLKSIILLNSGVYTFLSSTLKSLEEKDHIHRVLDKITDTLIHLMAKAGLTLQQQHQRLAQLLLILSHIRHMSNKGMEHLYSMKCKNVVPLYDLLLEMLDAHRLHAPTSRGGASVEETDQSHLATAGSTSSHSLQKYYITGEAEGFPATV
Note on pKi: it is the negative log10 of concentration, concentration in mol/L.

Bench note: what pKi did `C=C(C)c1ccc2c(c1)c(-c1ccc(OCCN3CCCCC3)cc1)cc1cc(O)cc(C)c12` show?
6.54

`Cc1cc(O)cc2cc(-c3ccc(OCCN4CCCCC4)cc3)c3cc(C(=O)C(C)C)ccc3c12` ?
6.31

CCc1ccc2c(c1)C(c1ccc(OCCN3CCCCC3)cc1)Cc1cc(O)cc(C)c1-2 (centres undefined) ?
8.06

`CC(C)=C(C)c1ccc2c(c1)c(-c1ccc(OCCN3CCCCC3)cc1)cc1cc(O)cc(C)c12` ?
6.68

###

# Ki measurements, system: UniProtKB Q92731
# Sequence (Q92731 whole entry): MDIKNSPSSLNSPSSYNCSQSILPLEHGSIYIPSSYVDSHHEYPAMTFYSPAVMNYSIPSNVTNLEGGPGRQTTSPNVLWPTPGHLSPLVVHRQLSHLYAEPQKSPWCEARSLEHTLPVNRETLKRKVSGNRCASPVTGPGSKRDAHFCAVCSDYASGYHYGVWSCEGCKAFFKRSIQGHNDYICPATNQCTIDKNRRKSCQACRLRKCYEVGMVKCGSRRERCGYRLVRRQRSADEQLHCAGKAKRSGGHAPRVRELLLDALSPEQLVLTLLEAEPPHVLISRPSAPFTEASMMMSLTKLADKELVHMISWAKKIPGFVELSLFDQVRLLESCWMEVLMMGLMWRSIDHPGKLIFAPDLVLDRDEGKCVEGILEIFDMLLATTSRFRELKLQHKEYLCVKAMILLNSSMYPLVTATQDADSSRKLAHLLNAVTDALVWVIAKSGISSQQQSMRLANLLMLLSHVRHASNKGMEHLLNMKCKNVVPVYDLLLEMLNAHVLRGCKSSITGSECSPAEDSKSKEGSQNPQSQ
Could you give me the number in µM? Just the number is fine.

Bench note: what Ki did `C=C(C)c1ccc2c(c1)c(-c1ccc(OCCN3CCCCC3)cc1)cc1cc(O)cc(C)c12` show?
0.18

Cc1cc(O)cc2cc(-c3ccc(OCCN4CCCCC4)cc3)c3cc(C(C)O)ccc3c12 (stereo unspecified) ?
0.19

CCc1ccc2c(c1)C(c1ccc(OCCN3CCCCC3)cc1)Cc1cc(O)cc(C)c1-2 (stereo unspecified) ?
0.19

`CC(C)=C(C)c1ccc2c(c1)c(-c1ccc(OCCN3CCCCC3)cc1)cc1cc(O)cc(C)c12` ?
0.2

`CC(=O)c1ccc2c(c1)c(-c1ccc(OCCN3CCCCC3)cc1)cc1cc(O)cc(C)c12` ?
0.63
